biological target: human GDF-11 (human, UniProt O95390 299-407, limits assumed); assay: plate binding assay, OD 450 nm, one antibody concentration that is not given, on Hu-GDF-11 (method not described in the text)
Sequence (O95390 299-407 limits assumed): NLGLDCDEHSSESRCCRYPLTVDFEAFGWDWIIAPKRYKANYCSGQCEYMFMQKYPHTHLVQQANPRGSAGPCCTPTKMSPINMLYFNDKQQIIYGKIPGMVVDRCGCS
experimental_endpoint: binding result

Ab111 (antibody, human IgG4 S228P, kappa, V domains shown) VH: QVQLVQSGAEVKKPGASVKVSCKVSGYTFTSNDIHWVRQAPGKGLEWMGGIFPIFGTTIYAQKFQGRVTMTEDTSTDTAYMELSSLKSEDTAVYYCAREGLGYDFDYWGQGTLVTVSS VL: DIQMTQSPSSVSASVGDRVTITCRASQNIGNWLAWYQQKPGKAPKLLIYSASALQSGVPSRFSGSGSGTDFTLTISSLQPEDFANYYCQQSYGAPMYSFGGGTKVEIKR
no binding
Ab126 (antibody, human IgG4 S228P, kappa, V domains shown) VH: EVQLVESGGGLVQPGGSLRLSCTASSFTFSNYAMDWVRQAPGKGLEWVSYISSDASTTYYADSVKGRFTISRDNAKNTLYLQMNSLRAEDTAVYYCARDGGYNPGIFDYWGQGTLVTVSS VL: DIQMTQSPSSLSASVGDRVTITCQASQSIGRWLNWYQQKPGKAPKLLIYDASILQTGVPSRFSGSGSGTDFTFTISSLQPEDIATYYCQQSFTTPPLTFGGGTKVEIKR
no binding
Ab128 (antibody, human IgG4 S228P, kappa, V domains shown) VH: EVQLVESGGGLVQPGGSLRLSCTASGFTLSSYSMDWVRQAPGKGLEWVSYITGSGDTTYYADSVKGRFTISRDNAKNTLYLQMNSLRAEDTAVYYCARGFGWISGWAEDYFDYWGQGTLVTVSS VL: DIQMTQSPSSLSASVGDRVTITCQASQSVYSYLNWYQQKPGKAPKLLIYGASRLEGGVPSRFSGSGSGTDFTFTISSLQPEDIATYYCQQHSTDQRTFGGGTKVEIKR
no binding
Ab119 (antibody, human IgG4 S228P, kappa, V domains shown) VH: QVQLVQSGAEVKKPGASVKVSCKVSGYTFTKDHIHWVRQAPGKGLEWMGGITPSSGDTIYAQKFQGRVTMTEDTSTDTAYMELSSLKSEDTAVYYCARDHMVRGLPNYYYGMDLWGQGTTVTVSS VL: DIQMTQSPSSVSASVGDRVTITCRASRDIANYLAWYQQKPGKAPKLLIYAASILQNGVPSRFSGSGSGTDFTLTISSLQPEDFANYYCQQAYTTPPTFGGGTKVEIKR
no binding
